Molecular target: human ether-à-go-go-related gene (hERG) potassium channel (human)
Assay: primary screen, population patch clamp on CHO cells stably expressing hERG; higher = less effect of the substance
Method: Briefly, Chinese hamster ovary (CHO) cells stably expressing the hERG channel were dislodged from tissue culture flasks and dispensed into PPC plates. […] During the recording, background leak currents were estimated by a 100 ms step to -80 mV from an initial holding potential of -70 mV and subtracted from the subsequent current measurement. The campaign was conducted in two phases using slight differences in recording protocol. […]
In all, about 310,000 compounds went through this assay and about 14,000 (4.5%) showed an effect of 50% or more. Effects have a minus sign here. The sample as a whole holds a higher share of strong results than the screen did.
READOUT_LABEL: hERG current change (%, negative = inhibition) at 10uM (%)
Report only the number, with the unit % understood.

Solved entries:
COMPOUND: Cn1cnc2c1c(=O)n(Cc1ccc(F)cc1Cl)c(=O)n2C
READOUT_NUMBER: 5.82
//
COMPOUND: Cc1cc(C)nc(-n2nc(C)cc2NC(=O)C(C)C)n1
READOUT_NUMBER: 16.9
//
COMPOUND: Cc1cc(NC(=O)CSc2cc(Cl)ccc2Cl)n(-c2ccccc2)n1
READOUT_NUMBER: -20.2
//
COMPOUND: CCN(CC(=O)Nc1cc(C)nn1-c1nc(C)cc(C)n1)Cc1ccccc1
READOUT_NUMBER: -42.8
//
COMPOUND: Cc1ccccc1-n1c(Cn2c(=O)sc3ccccc32)nnc1SCC(=O)NCC1CCCO1 (stereo not shown)
READOUT_NUMBER: -2.85

Could you share which hERG current change (%, negative = inhibition) at 10uM value was measured for Cc1cc(NC(=O)CSCC(=O)N2CCN(c3cccc(C(F)(F)F)c3)CC2)no1 ?
-11.3

Could you share which hERG current change (%, negative = inhibition) at 10uM value was measured for COc1ccc2nc(NC(=O)CSCc3c(C)noc3C)sc2c1 ?
1.24

Could you share which hERG current change (%, negative = inhibition) at 10uM value was measured for CCC(C(=O)Nc1cc(C)cc(C)n1)c1ccccc1 (stereo not shown) ?
-23.6

Could you share which hERG current change (%, negative = inhibition) at 10uM value was measured for COc1ccc(CNCC(=O)Nc2cc(C)nn2-c2nc(C)cc(C)n2)cc1OC ?
-56.8

Could you share which hERG current change (%, negative = inhibition) at 10uM value was measured for CC(C)(C)N/C=C(\C#N)S(=O)(=O)c1ccc(Br)cc1 ?
-10.5

---

Measured hERG current change (%, negative = inhibition) at 10uM values are reported for all entries that follow.
biological target: human ether-à-go-go-related gene (hERG) potassium channel (human, UniProt Q12809); assay: primary screen, population patch clamp on CHO cells stably expressing hERG; higher = less effect of the substance
Sequence (Q12809 whole entry, looked up): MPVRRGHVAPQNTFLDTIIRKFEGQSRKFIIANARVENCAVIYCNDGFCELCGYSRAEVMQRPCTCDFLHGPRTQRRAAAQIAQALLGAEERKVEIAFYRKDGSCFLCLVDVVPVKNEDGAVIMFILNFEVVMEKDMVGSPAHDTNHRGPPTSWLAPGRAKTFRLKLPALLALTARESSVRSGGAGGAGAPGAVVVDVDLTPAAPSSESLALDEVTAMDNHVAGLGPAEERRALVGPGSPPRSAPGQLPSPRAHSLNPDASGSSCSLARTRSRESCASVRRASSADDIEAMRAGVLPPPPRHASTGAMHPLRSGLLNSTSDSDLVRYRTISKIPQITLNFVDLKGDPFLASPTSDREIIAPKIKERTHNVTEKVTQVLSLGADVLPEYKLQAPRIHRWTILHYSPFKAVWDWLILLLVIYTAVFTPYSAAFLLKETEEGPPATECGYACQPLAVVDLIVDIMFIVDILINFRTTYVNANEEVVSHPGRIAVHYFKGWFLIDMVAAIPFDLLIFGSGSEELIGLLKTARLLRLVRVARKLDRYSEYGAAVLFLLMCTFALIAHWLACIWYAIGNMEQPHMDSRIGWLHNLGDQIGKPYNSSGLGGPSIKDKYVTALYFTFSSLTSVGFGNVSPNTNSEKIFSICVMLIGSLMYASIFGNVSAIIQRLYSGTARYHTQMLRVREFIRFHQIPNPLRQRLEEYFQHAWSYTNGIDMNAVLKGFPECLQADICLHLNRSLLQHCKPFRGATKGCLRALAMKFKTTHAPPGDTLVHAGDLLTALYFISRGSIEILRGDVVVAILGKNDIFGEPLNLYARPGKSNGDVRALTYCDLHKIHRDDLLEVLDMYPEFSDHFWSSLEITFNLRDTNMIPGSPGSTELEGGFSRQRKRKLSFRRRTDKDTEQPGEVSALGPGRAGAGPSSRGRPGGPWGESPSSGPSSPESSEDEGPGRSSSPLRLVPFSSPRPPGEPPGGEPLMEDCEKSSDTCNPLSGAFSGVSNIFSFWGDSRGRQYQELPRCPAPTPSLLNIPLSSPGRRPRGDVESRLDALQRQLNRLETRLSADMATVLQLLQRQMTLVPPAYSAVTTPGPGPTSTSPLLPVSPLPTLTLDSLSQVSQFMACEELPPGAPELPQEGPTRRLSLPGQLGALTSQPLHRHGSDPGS
The campaign covered roughly 310,000 compounds. About 14,000 (4.5%) showed an effect of 50% or more. The effect is printed as a negative number. Many of the other results were omitted from the sample, so strong results are more common in it than they were.
Report only the number, with the unit % understood.

MOLECULE: COc1cccc(-c2cc(C(F)(F)F)nc(-n3ccc([N+](=O)[O-])n3)n2)c1
SYSTEM: human ether-à-go-go-related gene (hERG) potassium channel (human, UniProt Q12809)
READOUT_NUMBER: -6.33

MOLECULE: COc1ccc(N(CC(=O)N2CCN(c3ccc(Cl)cc3)CC2)S(=O)(=O)c2c(C)n[nH]c2C)cc1
SYSTEM: human ether-à-go-go-related gene (hERG) potassium channel (human, UniProt Q12809)
READOUT_NUMBER: -10.1

MOLECULE: O=C(Nc1nccs1)c1ccc(Cl)cc1[N+](=O)[O-]
SYSTEM: human ether-à-go-go-related gene (hERG) potassium channel (human, UniProt Q12809)
READOUT_NUMBER: -9.1

MOLECULE: CCOC(=O)N1CCN(C(=O)c2cn(C)c3ccc(S(=O)(=O)N(C)C4CCCCC4)cc3c2=O)CC1
SYSTEM: human ether-à-go-go-related gene (hERG) potassium channel (human, UniProt Q12809)
READOUT_NUMBER: -29.4

MOLECULE: CCOC(=O)N1CCN(c2ccc(O)cc2)CC1
SYSTEM: human ether-à-go-go-related gene (hERG) potassium channel (human, UniProt Q12809)
READOUT_NUMBER: 15.6

MOLECULE: CCC1CCCCN1CCCNC(=O)c1cn(C)c2ccc(S(=O)(=O)N(C)C3CCCCC3)cc2c1=O (stereo not shown)
SYSTEM: human ether-à-go-go-related gene (hERG) potassium channel (human, UniProt Q12809);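 also: peak tail current of the secondary pulse compared with the same well before compound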
READOUT_NUMBER: -62.8

MOLECULE: Cc1csc(NC(=O)c2ccc(Cl)cc2[N+](=O)[O-])n1
SYSTEM: human ether-à-go-go-related gene (hERG) potassium channel (human, UniProt Q12809);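 also: peak tail current of the secondary pulse compared with the same well before compound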
READOUT_NUMBER: -64.8

MOLECULE: O=[N+]([O-])c1ccc(N2CCN(c3ccccc3O)CC2)cc1
SYSTEM: human ether-à-go-go-related gene (hERG) potassium channel (human, UniProt Q12809);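 also: peak tail current of the secondary pulse compared with the same well before compound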
READOUT_NUMBER: -0.173

Could you share which hERG current change (%, negative = inhibition) at 10uM value was measured for COc1cccc(CNC(=O)CSC(=S)N2CCCC2)c1 ?
2.79

Could you share which hERG current change (%, negative = inhibition) at 10uM value was measured for COC(=O)CS(=O)(=O)c1cc(Br)cc2c1N(C(C)=O)CC2 ?
5.36

Could you share which hERG current change (%, negative = inhibition) at 10uM value was measured for Cc1cnc(C(=O)Nc2ccc(N3CCN(C(=O)OC(C)(C)C)CC3)cc2)cn1 ?
14.1

Could you share which hERG current change (%, negative = inhibition) at 10uM value was measured for CN(C)C(=O)c1ccc(NC(=O)c2ccccc2Sc2ccccc2C#N)cc1 ?
1.57

Could you share which hERG current change (%, negative = inhibition) at 10uM value was measured for CCN(CC)C(=O)Cn1cc(C(=O)C(=O)N2CCN(c3ccc([N+](=O)[O-])cc3)CC2)c2ccccc21 ?
-65.8

Could you share which hERG current change (%, negative = inhibition) at 10uM value was measured for CC(C)(C)C(=O)Nc1ccc(C(=O)Nc2cc(NC(=O)c3ccc(NC(=O)C(C)(C)C)cc3)cc(C(=O)O)c2)cc1 ?
6.62

Could you share which hERG current change (%, negative = inhibition) at 10uM value was measured for CC(C)(C)OC(=O)N1CCN(c2ccc([N+](=O)[O-])cc2)CC1 ?
-73.3

Could you share which hERG current change (%, negative = inhibition) at 10uM value was measured for Cc1c(NC(=S)NC(NC(=O)C(C)C)C(Cl)(Cl)Cl)c(=O)n(-c2ccccc2)n1C (stereo not shown) ?
-1.45

Could you share which hERG current change (%, negative = inhibition) at 10uM value was measured for CCOC(=O)N1CCN(c2ccc([N+](=O)[O-])cc2)CC1 ?
-59.4

Could you share which hERG current change (%, negative = inhibition) at 10uM value was measured for CCn1cc(C(=O)NCC2CCCO2)c(=O)c2cc(S(=O)(=O)N(C)C3CCCCC3)ccc21 (stereo not shown) ?
-31.6

Could you share which hERG current change (%, negative = inhibition) at 10uM value was measured for Cc1csc(NC(=O)c2ccccc2[N+](=O)[O-])n1 ?
2.69

---

biological target: human ether-à-go-go-related gene (hERG) potassium channel (human, UniProt Q12809); assay: primary screen, population patch clamp on CHO cells stably expressing hERG; higher = less effect of the substance;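 also: peak tail current of the secondary pulse compared with the same well before compound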
Among all 310,000 compounds or so, about 14,000 (4.5%) showed an effect of 50% or more. Effects have a minus sign here. What follows is part of a selection rich in strong results, with near analogues and random picks from the rest.
READOUT_LABEL: hERG current change (%, negative = inhibition) at 10uM (%)
Report only the number, with the unit % understood.

Solved entries:
STRUCTURE_AS_SMILES: CCOC(=O)c1c(C)[nH]c(C(=O)COC(=O)C23CC4CC(CC(Cl)(C4)C2)C3)c1C
READOUT_NUMBER: 11.6
--
STRUCTURE_AS_SMILES: Cc1cccc(NC(=O)CCc2ccc(S(=O)(=O)NC3CCCCC3)cc2)c1
READOUT_NUMBER: 14.4

Could you share which hERG current change (%, negative = inhibition) at 10uM value was measured for Cc1ccc(-c2cc([C@H]3[C@@H]4C=CCC[C@@]4(C)C(=O)N3Cc3ccccc3)ccc2F)cc1 ?
8.75

Could you share which hERG current change (%, negative = inhibition) at 10uM value was measured for COc1ccc(Cl)cc1NC(=O)CN1CCN(S(=O)(=O)N2CCCCC2)CC1 ?
-9.48

Could you share which hERG current change (%, negative = inhibition) at 10uM value was measured for Cc1cccc(N2CCN(CC(=O)NCC3CCCCC3)CC2)c1C.Cl ?
-6.63
